- system-name: T1, MARV VP30 CTD (146–281) (Marburg virus (MARV), UniProt P35258 146-281)
- T1 chain: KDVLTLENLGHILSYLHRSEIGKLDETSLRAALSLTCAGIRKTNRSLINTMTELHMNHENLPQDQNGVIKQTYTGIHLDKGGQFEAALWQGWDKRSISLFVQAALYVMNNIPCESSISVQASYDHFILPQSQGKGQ
- procedure-summary: ITC
The following binders are shown together with reported Kd values.
State the answer as a number, implicitly in µM.

RTPTVAPPAPVYRDHSEK [EBOV NP 600–617 fused to T4 lysozyme]    35

Please turn your attention to the following entry.
Request: Using the record for NTPTVAPPAPVYKDTGVD [SUDV NP peptide (600–617) fused to T4 lysozyme] , report its Kd.
Response: 70
